- Tested on: HeLa cells
- test-protocol: Cytotoxicity studies in HeLa cells (MTT assay / crystal violet assay)
- Type: cell-based
- cond: in the presence of 20 μM alkyne 2a; 48 hours (FIG. 3b); read-out: IC50 in HeLa cells
assay-metric: IC50

Look up IC50 for this compound: C#CCOc1ccc(-c2nnc(C(=O)NC3CC(OC4CC(O)(C(=O)CO)Cc5c(O)c6c(c(O)c54)C(=O)c4c(OC)cccc4C6=O)OC(C)C3O)nn2)cc1 (stereo not shown) ~10 µM

###

Give IC50 for every item shown.
- Tested on: HeLa cells
- test-protocol: Cytotoxicity studies in HeLa cells (MTT assay / crystal violet assay)
- Format: cell-based
- cond: Homo sapiens, HeLa, 48 h, compound alone; 48 h; read-out: IC50 in Hela cell line

Fill blank: measured IC50 of the compound COc1cccc2c1C(=O)c1c(O)c3c(c(O)c1C2=O)CC(O)(C(=O)CO)CC3OC1CC(NC(=O)c2nnc(-c3ccc(OCc4cn(CCCCCCCCC[P+](c5ccccc5)(c5ccccc5)c5ccccc5)nn4)cc3)nn2)C(O)C(C)O1 (stereo not drawn) is ____. > 40 µM

Name the recorded IC50 for O=C(NCCC[P+](c1ccccc1)(c1ccccc1)c1ccccc1)c1ccc(CC2(O)C#CCCCCC2)cc1.[Br-] (stereo not drawn) . > 40 µM

Give the measured IC50 of COc1cccc2c1C(=O)c1c(O)c3c(c(O)c1C2=O)C[C@@](O)(C(=O)CO)C[C@@H]3O[C@H]1C[C@H](N)[C@H](O)[C@H](C)O1 [Dox, Doxorubicin, reference compound] . ~1 µM
